Assay: Pharmacokinetic evaluation of compounds in mice (tail vein injection)
Type: in vivo, Male CD-1 (ICR) mice
Conditions: CD-1 (ICR), mouse; male CD-1 mice, intravenous injection, dose 10 mg/kg, plasma; read-out: T½ (converted)
Assay endpoint: half-life (min)

Cc1c(O)c(=O)cc(C(=O)N2CC[C@@H](c3cc(C(=O)NC[C@@H]4[C@H](NC(=O)/C(=N\OC(C)(C)C(=O)O)c5csc(N)n5)C(=O)N4S(=O)(=O)O)on3)C2)n1O [Compound I-43] | 35.4

[1] Cc1c(C(=O)N2CC[C@@H](c3cc(C(=O)NC[C@@H]4[C@H](NC(=O)/C(=N\OC(C)(C)C(=O)O)c5csc(N)n5)C(=O)N4S(=O)(=O)O)on3)C2)n(O)c(C)c(O)c1=O [Compound I-44]
[2] CC(C)(O/N=C(\C(=O)N[C@@H]1C(=O)N(S(=O)(=O)O)[C@@H]1CNC(=O)c1cc([C@@H]2CCN(CCNC(=O)c3ccc(O)c(O)c3Cl)C2)no1)c1csc(N)n1)C(=O)O [Compound I-35]
Hey, which is lower on measured half-life, 1 or 2 ? State your choice using its label. 1
(1: 37.8 min, 2: 85.8 min)

---

MIC data for Escherichia coli HDBEC 30008 follow.

Example molecules with recorded MIC:
Nc1nc(/C(=N/OC2(C(=O)O)CC2)C(=O)N[C@@H]2C(=O)N(S(=O)(=O)O)[C@@H]2CNC(=O)c2cc([C@@H]3CCN(C(=O)c4ccc(O)c(O)c4Cl)C3)no2)cs1 | < 4 µg/mL
CC(C)(O/N=C(\C(=O)N[C@H]1C(=O)N(S(=O)(=O)O)[C@H]1CNC(=O)c1cc([C@@H]2CCN(C(=O)c3cc(=O)c(O)cn3O)C2)no1)c1nc(N)sc1Cl)C(=O)O | > 16 µg/mL

Notebook: pull reported MIC for Escherichia coli HDBEC 30008, entry CC(C)(O/N=C(\C(=O)N[C@@H]1C(=O)N(S(=O)(=O)O)[C@@H]1CNC(=O)c1cnc([C@@H]2CCN(C(=O)c3ccc(O)c(O)c3Cl)C2)s1)c1csc(N)n1)C(=O)O < 4 µg/mL

Find the measured MIC: item CC(C)(O/N=C(\C(=O)N[C@@H]1C(=O)N(S(=O)(=O)O)[C@@H]1CNC(=O)c1cnc(C2=CC(CCCNC(=O)c3ccc(O)c(O)c3Cl)N=C2)s1)c1csc(N)n1)C(=O)O (some centres unmarked) , target or system Escherichia coli HDBEC 30008. < 4 µg/mL

// fetch Escherichia coli HDBEC 30008 MIC for CC(C)(O/N=C(\C(=O)N[C@@H]1C(=O)N(S(=O)(=O)O)[C@@H]1CNC(=O)c1cc([C@@H]2CCN(CCNC(=O)c3ccc(O)c(O)c3Cl)C2)no1)c1csc(N)n1)C(=O)O < 4 µg/mL
